tested on: Vero E6 infected with SARS-CoV-2; test: inhibition of SARS-CoV-2 cytopathic effect; higher = more antiviral protection, active = above 15; details: 10000 nM; 48 h
QUANTITY_KIND: inhibition of SARS-CoV-2 cytopathic effect (%)

| MOLECULE | RESULT_NUMBER |
| --- | --- |
| COc1cc(Br)c(S(=O)(=O)Nc2ccc(C(F)(F)F)c(O[C@@H]3CCN(C)C3)c2)cc1OC | -2.24 |
| C[C@]12CC[C@@H]3c4ccc(OC(=O)N(CCCl)CCCl)cc4CC[C@H]3[C@@H]1CC[C@@H]2OP(=O)(O)O [estramustine-phosphate] | -2.26 |
| CC[C@@H](C(=O)[C@@H](C)[C@@H](O)[C@H](C)[C@@H]1O[C@@H]([C@@H](CC)C(=O)O)CC[C@@H]1C)[C@H]1O[C@]2(C=C[C@@H](O)[C@]3(CC[C@@](C)([C@H]4CC[C@](O)(CC)[C@H](C)O4)O3)O2)[C@H](C)C[C@@H]1C [Salinomycin (Procoxacin)] | 57 |
| CNC(=O)c1cc2c(cn1)[nH]c1ccccc12 | 1.58 |

* * *

system: Vero E6 infected with SARS-CoV-2; test: inhibition of SARS-CoV-2 cytopathic effect; higher = more antiviral protection, active = above 15; settings: 1 nM; 48 h
QUANTITY_KIND: inhibition of SARS-CoV-2 cytopathic effect (%)

| COMPOUND | VALUE_UNITS | RESULT_NUMBER |
| --- | --- | --- |
| O=C(O)c1ccccc1C(=O)Nc1ccc(-c2ccccc2)cc1 [kartogenin] | % | 3.34 |
| O=C1C[C@@]2(C(=O)N1)C(=O)N(Cc1ccc(Br)cc1F)C(=O)c1cccn12 [ranirestat] | % | 0.68 |
| O=C(OCC(O)CO)c1ccccc1Nc1ccnc2cc(Cl)ccc12 (stereo not given) [glafenine] | % | -1.53 |
| CC(=O)N(c1onc(C)c1C)S(=O)(=O)c1ccc(N)cc1 [sulfisoxazole-acetyl] | % | -4.04 |
| C1=C2CCCN[C@H]2[C@@H]2C[C@H]1[C@H]1CCCCN1C2 [aloperine] | % | -0.36 |
| Cc1cccc(/C=N/Nc2cc(N3CCOCC3)n3nc(-c4ccncc4)cc3n2)c1 | % | 1.37 |
| CC(C(=O)O)c1cccc(C(=O)c2ccccc2)c1 (stereo not given) [ketoprofen] | % | -0.91 |
| Nc1ncnc2c1c(-c1cnc3[nH]ccc3c1)nn2C1CCCC1 | % | -1.07 |
| Cc1cc(=O)n(-c2ccccc2)n1C [phenazone] | % | 1.97 |
| CC(C)c1ccc2c(c1)CC[C@H]1[C@](C)(CN)CCC[C@]21C [lylamine] | % | -2.24 |
| O=[N+]([O-])c1cccc2c(Br)n[nH]c12 [3-bromo-7-nitroindazole] | % | 0.35 |
| O=C(Nc1ccc(O)cc1)c1ccccc1O [N-salicoylaminophenol] | % | 1.23 |
| C=C(C)[C@@H]1[C@H]2OC(=O)[C@@H]1[C@]1(O)C[C@H]3O[C@]34C(=O)O[C@H]2[C@]14C [picrotoxinin] | % | -2.53 |
| CO[C@@]1(NC(=O)CSC[C@@H](N)C(=O)O)C(=O)N2C(C(=O)O)=C(CSc3nnnn3C)CS[C@@H]21 [cefminox] | % | -0.91 |
| CC(N)Cc1c[nH]c2ccc(OCc3cccs3)cc12 (stereo not given) | % | 0.71 |
